- System under test: human CYP2C19 (Homo sapiens, UniProt P33261)
- Sequence (P33261 whole entry): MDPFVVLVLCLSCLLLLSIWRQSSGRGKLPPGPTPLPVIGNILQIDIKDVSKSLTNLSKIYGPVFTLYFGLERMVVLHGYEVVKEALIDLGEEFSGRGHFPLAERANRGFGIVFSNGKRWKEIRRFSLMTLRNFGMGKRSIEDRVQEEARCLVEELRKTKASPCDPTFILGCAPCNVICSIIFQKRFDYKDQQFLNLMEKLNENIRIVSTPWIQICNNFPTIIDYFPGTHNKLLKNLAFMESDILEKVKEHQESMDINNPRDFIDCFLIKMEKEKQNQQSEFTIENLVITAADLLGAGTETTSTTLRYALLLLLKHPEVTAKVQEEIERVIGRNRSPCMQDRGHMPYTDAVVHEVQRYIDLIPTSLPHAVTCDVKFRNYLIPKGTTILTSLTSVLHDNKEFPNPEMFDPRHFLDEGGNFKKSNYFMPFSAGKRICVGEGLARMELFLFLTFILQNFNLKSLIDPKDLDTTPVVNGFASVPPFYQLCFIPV
- Test details: biochemical
- Experimental context: CYP2C19 IC50

Compound	IC50 (µM)
Cc1ccc(N(CC2=NCCN2)c2cccc(O)c2)cc1 [Phentolamine mesilate]	14.6
CCCCC(CC)CNCC(CC)CCCC (stereo not shown) [2,2'-Diethylhexylamine]	51.3
[O-][n+]1ccccc1SSc1cccc[n+]1[O-] [Dipyrithione]	0.79
Nc1c(Cl)c(Cl)c(Cl)c(Cl)c1Cl [Pentachloroaniline]	44
CCOC(=O)C(SP(=S)(OC)OC)c1ccccc1 (stereo not shown) [Phenthoate]	0.3
Cc1cc(O)c2ccccc2c1O [Menadiol]	13.4
CCOP(=S)(OCC)O/N=C(\C#N)c1ccccc1 [Phoxim]	0.28
Cc1c2ccccc2c(C)c2c1ccc1ccccc12 [7,12-Dimethylbenz(a)anthracene]	6.09
CO[C@]12C[C@@H](COC(=O)c3cncc(Br)c3)CN(C)[C@@H]1Cc1cn(C)c3cccc2c13 [Nicergoline]	11.8
Cc1ccccc1NC(=N)Nc1ccccc1C [1,3-Bis(2-methylphenyl)guanidine]	1.11
